# System: HT-1080
# method.description: relative cell viability with RSL3 co-treatment (fraction of control); higher = stronger protection from RSL3-induced ferroptosis (higher viability)
# conditions.used: 10 µM
Where a name gives a salt, the structure may show the parent alone.

molecule: COc1cc2ncnc(Nc3cccc(Cl)c3)c2cc1OC
relative cell viability: 0.68
//
molecule: CN1CCN(c2ccc3nc(-c4c(N)c5c(F)cccc5[nH]c4=O)[nH]c3c2)CC1 [Dovitinib (TKI-258) Dilactic Acid]
relative cell viability: 0.563
//
molecule: Cc1ccc(S(=O)(=O)/C=C/C#N)cc1
relative cell viability: 0.463
//
molecule: CNc1nc(Nc2cn(C(C)(C)C#N)nc2C)ncc1C(F)(F)F
relative cell viability: 0.757
//
molecule: CC(C)(C)c1cnc(CSc2cnc(NC(=O)C3CCNCC3)s2)o1
relative cell viability: 0.573
//
molecule: CN(C)Cc1cccc(N=C(c2ccccc2)c2c(O)[nH]c3cc(C(=O)N(C)C)ccc23)c1
relative cell viability: 0.79
//
molecule: CC[C@@](C)(Nc1ccnc(-c2c[nH]c3ncccc23)n1)C(=O)NCC(F)(F)F
relative cell viability: 0.823
//
molecule: CCCCCCCCCCCCCCCCCCOP(=O)([O-])OC1CC[N+](C)(C)CC1
relative cell viability: 0.463
//
molecule: COc1cc2ncnc(Oc3ccc(CC(=O)Nc4cnn(C(C)C)c4)cc3)c2cc1OC
relative cell viability: 0.643
//
molecule: CC(C)(O)CC(=O)NCCn1ccc2ncnc(Nc3ccc(Oc4cccc(C(F)(F)F)c4)c(Cl)c3)c21
relative cell viability: 0.567
//
molecule: CC(C)(C)NS(=O)(=O)c1cncc(-c2cc(F)c3nc(N)nn3c2)c1
relative cell viability: 0.803
//
molecule: O=c1ncn2nc(Sc3ccc(F)cc3F)ccc2c1-c1c(Cl)cccc1Cl
relative cell viability: 0.5
//
molecule: Oc1c2ccccc2c2c3c(cccc13)N=N2
relative cell viability: 0.71
//
molecule: O=S(=O)(c1cccc2cnccc12)N1CCCNCC1 [Fasudil (HA-1077) HCl]
relative cell viability: 1.13
//
molecule: CCN1CCN(Cc2ccc(Nc3ncc(F)c(-c4cc(F)c5nc(C)n(C(C)C)c5c4)n3)nc2)CC1
relative cell viability: 0.42
//
molecule: COc1cc2c(Nc3ccc(NC(=O)c4ccccc4)cc3)ncnc2cc1OCCCN1CCOCC1
relative cell viability: 0.717
//
molecule: Nc1ccc(C(=O)Nc2cccc(-c3nc(N4CCOCC4)c4oc5ncccc5c4n3)c2)cn1
relative cell viability: 0.303
//
molecule: C[C@H](NC(=O)/C(C#N)=C/c1cccc(Br)n1)c1ccccc1
relative cell viability: 0.807
//
molecule: COc1cccc(-c2cc(=O)c3ccccc3o2)c1N
relative cell viability: 0.717

====

# Tested on: HT-1080;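 also: viability read as CCK-8 absorbance at 450 nm in cells co-exposed to the GPX4 inhibitor RSL3, relative to a 0.01% DMSO vehicle control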
# method.description: relative cell viability with RSL3 co-treatment (fraction of control); higher = stronger protection from RSL3-induced ferroptosis (higher viability)
# conditions.used: 10 µM
Counter-ions that a name gives are not always drawn.
Items are presented alongside their recorded relative cell viability.
measurement.type: relative cell viability

compound: O=C(Cc1ccc(-c2ccc(OCCN3CCOCC3)cc2)cn1)NCc1ccccc1
measurement.type: relative cell viability
obs.value: 0.627
//
compound: Cc1cc(Nc2nc(N[C@@H](C)c3ncc(F)cn3)ncc2Cl)[nH]n1
measurement.type: relative cell viability
obs.value: 0.597
//
compound: Cn1ncc(Cl)c1-c1cc(C(=O)N[C@H](CN)Cc2ccc(F)c(F)c2)oc1Cl
measurement.type: relative cell viability
obs.value: 0.753
//
compound: CC(C)(C)c1cc(/C=C(\C#N)C(N)=S)cc(C(C)(C)C)c1O [Tyrphostin AG 879]
measurement.type: relative cell viability
obs.value: 0.69
//
compound: CCCCCCCCCCCCCCCCOP(=O)([O-])OCC[N+](C)(C)C [Miltefosine]
measurement.type: relative cell viability
obs.value: 0.6
//
compound: Cc1ccc(NC(=O)c2ccc(CN3CCN(C)CC3)cc2)cc1Nc1nccc(-c2cccnc2)n1 [Imatinib Mesylate (STI571)]
measurement.type: relative cell viability
obs.value: 0.733
//
compound: OCCn1cc(-c2cnc3nnn(Cc4ccc5ncccc5c4)c3n2)cn1
measurement.type: relative cell viability
obs.value: 0.813
//
compound: Cc1cc(CS(=O)(=O)c2ccccc2)cc(OCc2ccc(CN3CCC[C@@H]3CO)cc2)c1
measurement.type: relative cell viability
obs.value: 0.723
//
compound: Cn1cnc(N)c2ncnc1-2 [3-Methyladenine (3-MA)]
measurement.type: relative cell viability
obs.value: 0.76

The measurements presented in this section are drawn from the supplement of paper PMC9588786.
